- TESTED SYSTEM: human MDM2 protein (amino acids 2-188) (Homo sapiens (Human))
- MEASUREMENT PROTOCOL: TR-FRET assay, p53-MDM2 Assay 2 (modified)
- Assay type: binding
- RUN PARAMETERS: TR-FRET; 0.1 nM MDM2, 0.1 nM Europium labeled streptavidin, Tecan genios Pro reader; read-out: IC50 p53-MDM2 Assay 2
pIC50: −log10 of the molar value.
QUANTITY: pIC50

a = COc1ccc(C(=O)O)cc1-c1cc2c(n1C(C)C)C(c1ccc(Cl)cc1)N([C@H]1CC[C@H](O)CC1)C2=O (stereo partly shown) [Example 65]
b = COc1ncc(-c2cc3c(n2C(C)C)C(C)(c2ccc(Cl)cc2)N(c2cc(Cl)c(=O)n(C)c2)C3=O)c(OC)n1 (stereo not shown) [Example 117]
c = COc1ccc(C(N)=O)cc1-c1cc2c(n1C(C)C)C(c1ccc(Cl)cc1)N(c1cc(Cl)ccc1C)C2=O (stereo not shown) [Example 61]
d = CNc1ncc(-c2cc3c(n2C(C)C)C(c2ccc(C#N)cc2)N(c2cc(Cl)cn(C)c2=O)C3=O)c(OC)n1 (stereo not shown) [Example 130]
Q: Put these in order: smallest pIC50 first, largest last. Order the labels as requested and give them as your answer.
Result: a, d, b, c
(a: 8.31, d: 8.97, b: 9.68, c: 9.98)

====

- TESTED SYSTEM: human MDM2 protein (amino acids 2-188) (Homo sapiens (Human), UniProt Q00987)
- Sequence (Q00987 2-188): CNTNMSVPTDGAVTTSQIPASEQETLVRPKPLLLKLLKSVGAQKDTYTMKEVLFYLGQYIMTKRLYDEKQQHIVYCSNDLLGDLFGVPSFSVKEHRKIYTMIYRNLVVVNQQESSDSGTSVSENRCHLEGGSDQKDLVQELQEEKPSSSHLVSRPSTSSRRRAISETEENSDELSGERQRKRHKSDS
- MEASUREMENT PROTOCOL: TR-FRET assay, p53-MDM2 Assay 2 (modified)
- Assay type: binding
- RUN PARAMETERS: TR-FRET; 0.1 nM MDM2, 0.1 nM Europium labeled streptavidin, Tecan genios Pro reader; read-out: IC50 p53-MDM2 Assay 2
QUANTITY: IC50 (nM)

I = CNS(=O)(=O)c1ccc(OC)c(-c2cc3c(n2C(C)C)C(c2ccc(Cl)cc2)N(c2cc(Cl)ccc2C)C3=O)c1 (stereo not shown) [Example 62]
II = COc1ncc(-c2cc3c(n2C(C)C)C(c2ccc(C#N)cc2)N(c2ccc(F)c(Cl)c2)C3=O)c(OC)n1 (stereo not shown) [Example 40]
Q: Two entries are listed, I and II . Which one carries the higher IC50? Refer to your chosen item by its label in the answer.
Result: II

I = COc1nc(N(C)C)ncc1-c1cc2c(n1C(C)C)C(c1ccc(Cl)cc1)N(C1CCOCC1)C2=O (stereo not shown) [Example 79]
II = COc1ncc(-c2cc3c(n2C(C)C)[C@@H](c2ccc(Cl)cc2)N(c2cc(Cl)ccc2C)C3=O)c(OC)n1 [Example 24]
III = COc1nc(N(C)C)ncc1-c1cc2c(n1C(C)C)[C@@H](c1ccc(Cl)cc1)N(c1c[nH]c(=O)c(Cl)c1)C2=O [Example 189]
Q: List these items ordered by IC50, big to small. Order the labels as requested and give them as your answer.
Result: II, III, I
(II: 29.6 nM, III: 10.6 nM, I: 0.423 nM)

I = COc1ccccc1-c1cc2c(n1C(C)C)C(c1ccc(Cl)cc1C)N(c1cc(Cl)ccc1C)C2=O (stereo not shown) [Example 30]
II = COc1ncc(-c2cc3c(n2C(C)C)[C@H](c2ccc(Cl)cc2C)N(c2cc(Cl)c(=O)n(C)c2)C3=O)c(OC)n1 [Example 160]
III = COc1ccccc1-c1cc2c(n1C(C)C)C(c1ccc(Cl)cc1C)N(c1cc(Cl)c(=O)n(C)c1)C2=O (stereo not shown) [Example 144]
Q: List these items ordered by IC50, big to small. Order the labels as requested and give them as your answer.
Result: III, I, II
(III: 0.554 nM, I: 0.376 nM, II: 0.144 nM)

I = COc1ncc(-c2cc3c(n2C(C)C)C(c2ccc(Cl)cc2)N(c2cc(Cl)c(=O)n(C)c2F)C3=O)c(OC)n1 (stereo not shown) [Example 156]
II = COc1ncc(-c2cc3c(n2C(C)C)C(c2ccc(Cl)cc2)N(C2CN(C)C(=O)N(C)C2)C3=O)c(OC)n1 (stereo not shown) [Example 110]
Q: Looking at I and II , which one comes out lower in IC50 terms? Refer to your chosen item by its label in the answer.
Result: I
(I: 0.122 nM, II: 0.741 nM)

====

In what follows, each item is paired with its pIC50 for human MDM4 protein (amino acids 2-185) (Homo sapiens (Human)).
pIC50: −log10 of the molar value.
QUANTITY: pIC50

Examples with answers:
• CNC(=O)c1ccc(OC)c(-c2cc3c(n2C(C)C)C(c2ccc(Cl)cc2C)N([C@H]2CC[C@H](O)CC2)C3=O)c1 (some centres unmarked) [Example 102] = 5.62
• COc1ncc(-c2cc3c(n2C(C)C)C(c2ccc(Cl)cc2C)N(C2CCOCC2)C3=O)c(OC)n1 (centres unmarked) [Example 105] = 5.20

I = COc1nc(N)ncc1-c1cc2c(n1C(C)C)C(c1ccc(Cl)cc1)N(C1CCOCC1)C2=O (centres unmarked) [Example 78]
II = COc1ncc(-c2cc3c(n2C(C)C)[C@H](c2ccc(Cl)cc2)N(c2cc(Cl)c(=O)n(C)c2)C3=O)c(OC)n1 [Example 121]
III = CNC(=O)c1ccc(OC)c(-c2cc3c(n2C(C)C)[C@H](c2ccc(Cl)cc2C)N(c2cc(Cl)ccc2C)C3=O)c1 [Example 32]
Q: List these items ordered by pIC50, big to small. Order the labels as requested and give them as your answer.
Result: III, II, I

====

- TESTED SYSTEM: human MDM2 protein (amino acids 2-188) (Homo sapiens (Human))
- MEASUREMENT PROTOCOL: TR-FRET assay, p53-MDM2 Assay 2 (modified)
- Format: binding
- RUN PARAMETERS: TR-FRET; 0.1 nM MDM2, 0.1 nM Europium labeled streptavidin, Tecan genios Pro reader; read-out: IC50 p53-MDM2 Assay 2
QUANTITY: IC50 (nM)

Examples with answers:
- COc1ncc(-c2cc3c(n2C(C)C)C(c2ccc(Cl)cn2)N(c2cc(Cl)cn(C)c2=O)C3=O)c(OC)n1 (centres unmarked) [Example 213]: 14.2
- COc1ncc(-c2cc3c(n2C(C)C)C(c2ccc(C#N)cc2)N(c2cccc(Cl)c2F)C3=O)c(OC)n1 (centres unmarked) [Example 42]: 0.246
- COc1nc(N(C)C)ncc1-c1c(C#N)c2c(n1C(C)C)C(c1ccc(Cl)cc1)N(c1cc(Cl)c(=O)n(C)c1)C2=O (centres unmarked) [Example 164]: 0.121

1 = CNc1ncc(-c2cc3c(n2C(C)C)C(c2ccc(Cl)cc2)N(c2c[nH]c(=O)c(Cl)c2)C3=O)c(OC)n1 (centres unmarked) [Example 152]
2 = COc1nc(N(C)C)ncc1-c1cc2c(n1C(C)C)C(c1ccc(Cl)cc1)N(c1cc(Cl)ccc1C#N)C2=O (centres unmarked) [Example 100]
Q: Looking at 1 and 2 , which one comes out lower in IC50 terms? Refer to your chosen item by its label in the answer.
Result: 1
(1: 0.166 nM, 2: 0.316 nM)

====

- TESTED SYSTEM: human MDM2 protein (amino acids 2-188) (Homo sapiens (Human), UniProt Q00987)
- MEASUREMENT PROTOCOL: TR-FRET assay, p53-MDM2 Assay 2 (modified)
- Format: binding
- RUN PARAMETERS: TR-FRET; 0.1 nM MDM2, 0.1 nM Europium labeled streptavidin, Tecan genios Pro reader; read-out: IC50 p53-MDM2 Assay 2
pIC50: −log10 of the molar value.
QUANTITY: pIC50

Examples with answers:
- COc1nc(N)ncc1-c1cc2c(n1C(C)C)C(c1ccc(C#N)cc1)N(c1cc(Cl)cn(C)c1=O)C2=O (centres unmarked): 8.25
- COc1ncc(-c2cc3c(n2C(C)C)[C@@H](c2ccc(Cl)cc2C)N(c2cc(Cl)c(=O)n(C)c2)C3=O)c(OC)n1: 6.51
- COc1ccc(C#N)cc1-c1cc2c(n1C(C)C)C(c1ccc(Cl)cc1)N(C1CCOCC1)C2=O (centres unmarked): 8.82
- COc1ncc(-c2cc3c(n2C(C)C)[C@@H](c2ccc(Cl)cc2)N(c2cc(Cl)c(=O)n(C)c2)C3=O)c(OC)n1: 7.11
- COc1ccc(CC(=O)O)cc1-c1cc2c(n1C(C)C)[C@H](c1ccc(Cl)cc1)N(c1cc(Cl)ccc1C)C2=O: 10.21

P = COc1ncc(-c2cc3c(n2C(C)C)C(c2ccc(Cl)cc2)N(C2CCOCC2)C3=O)c(OC)n1 (centres unmarked)
Q = COc1ccccc1-c1cc2c(n1C(C)C)C(c1ccc(Cl)cc1)N(c1cc(Cl)ccc1C)C2=O (centres unmarked)
R = COc1nc(N(C)C)ncc1-c1cc2c(n1C(C)C)[C@H](c1ccc(Cl)c(F)c1)N(c1cc(Cl)c[nH]c1=O)C2=O
Q: Hey, quick one: sort these by pIC50, low to high? Order the labels as requested and give them as your answer.
Result: P, Q, R
(P: 8.79, Q: 9.53, R: 10.15)
